For each entry below, report its PBM binding z-score value.
Tested on: PPARg homodimer (NR concentration 180 nM)
Test: PBM binding z-score (relative to random genomic background probes); higher = stronger binding; sequences stand for … in GC…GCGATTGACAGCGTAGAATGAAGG
Give bare numbers.

CAAACAAGGTCAAGGTCAAAGTCGGTTTGTGCCA: 4.82
CAAACTAGGACAAAGGTCAAAGTCGAGCCAACCA: 4.89
CCTACTGAGCCATTCAGAGGTCATTGATCATATG: 3.19
CATACAGGGTCAGCTAGGCCACAGTAGGGACGGC: 2.12
CCTACTGGGCCACGAAAGGTCATAGATTCAGTGA: 3.16
CGAACTAGGTCAGCACAGGACAGTGAAGGATGAT: 1.37

Then this sequence:
Reported PBM binding z-score ( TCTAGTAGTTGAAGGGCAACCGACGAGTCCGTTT ) = 0.499

----------
System: FXR:RXRa (NR concentration 270 nM, RXRa partner concentration 90 nM)
Assay: PBM binding z-score (relative to random genomic background probes); higher = stronger binding; sequences stand for … in GC…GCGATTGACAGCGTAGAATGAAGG
Label condition met when PBM binding z-score is at or above 0.8; anything below gets condition not met.

Example cases with answers are listed next.
TTACCAAGGTGAAAGGTCGTTCATGCACGCCTTG: condition met
ATCGATAGGTCGTGAGGTGAGTATACAGAAAGGC: condition met
TCTCGGAGGACACGAACGTCAGAGCTTTCCAGAG: condition not met
TATCCTAGGTCATTGGGCCAGTATAGTACGCATC: condition met
CAAACTAGGTCAAGAGGTAAAAGTCCGCTTCCCG: condition met
ACTATTAGTTGAGCCGAGGGCAACCGATAGGTTG: condition met
ACTATTTGTTGAGACGAGGGCAACCGATAGGTTG: condition not met
TCTAGTTGGTCAGAGGTCACACACTCGAAATGCG: condition met
CTAGCAAGGTGAACAAGGTCGTTGATTACTATTC: condition met
GCGGCTGGGGCATCAGCAGGTTACCATAACTTAA: condition not met

Alright, here's another sequence for you.
Can TAGCCTAGGTCATGCGGGCAAGTATAGTGTCGGC be said to have PBM binding z-score at or above 0.8?
condition met

----------
Tested on: THRa homodimer (NR concentration 90 nM)
Experiment: PBM binding z-score (relative to random genomic background probes); higher = stronger binding; sequences stand for … in GC…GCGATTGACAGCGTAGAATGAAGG
Please use Yes whenever PBM binding z-score is not below 0.6, and No whenever it is.

CGTCAAAGTTCAACTAAGGTAACGTTAAGCACGC: Yes
CCTACTGGGCCACCAAAGGTCATTGATTCAGTGA: Yes
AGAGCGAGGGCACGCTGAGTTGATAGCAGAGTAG: No

API: above_or_equal(metric=PBM binding z-score, cutoff=0.6) for item TCTCGGAGGACACGAAGGTCAGAGATTTCCAGAG
Yes

Check if PBM binding z-score >= 0.6 (inclusive). Item: GCGACTGGGGCATCAGCAGGCTACCATAACTTAA
No

Answer whether PBM binding z-score of TAGACTAGGTCATTGGGCCAGTATAGTACGCATC is greater than or equal to 0.6.
Yes

Threshold query (PBM binding z-score >= 0.6) on ATCTCTAGGTCACAAGTTCAGTGAAAGAGAGGAC
Yes

Answer whether PBM binding z-score of TCGAGTCGGTTAGTCGGGGCATTCAGCCAACATA is greater than or equal to 0.6.
No

hey, is PBM binding z-score for this one >= 0.6? GCGACTGGGGCAGCAGCAGGTTACCATAACTTAA
No

Reported PBM binding z-score reaches at least 0.6 for TCTGCTAGGTCAACAATGGTCAGCTAATCTGCTA ?
Yes
